# test_method_notes: MMV: MTT Cytotoxicity Assay Day 7 pi of Assay #6 (compound washed out Day 1 pi), U87-CD4-CCR5 cells, % cell death @ 5mM compound
# Type: toxicity, cell-based
# protocol_conditions: human, u87-cd4-ccr5, 5000 µM
Just a reminder that ties go to No: only % Cell Death strictly below 10 counts as Yes.

[[record]]
molecule = "N=c1n(CCN2CCCCC2)c2ccccc2n1CC(=O)c1ccc(Cl)c(Cl)c1"
category = "Yes"

[[record]]
molecule = "COc1ccc(C=C2SC(=N)N(c3ccccc3OC)C2=O)cc1"
category = "No"

[[record]]
molecule = "Cc1ccc(F)cc1NC(=O)c1cc(Cl)ccc1Nc1ccccc1"
category = "Yes"

[[record]]
molecule = "COc1ccc2nc(N)nc(C)c2c1"
category = "Yes"

[[record]]
molecule = "CCOC(=O)C1(Cc2ccccc2)CCN(Cc2cccc(OC)c2O)CC1"
category = "No"

[[record]]
molecule = "COc1ccc(N2CCN(C(CNC(=O)CC(C)(C)C)c3ccc4c(c3)OCO4)CC2)cc1 (configuration not stated)"
category = "Yes"

[[record]]
molecule = "CCN(CC)CCCNc1nc(-c2ccc(Cl)cc2)nc2ccccc12"
category = "No"

[[record]]
molecule = "Cc1cc(Nc2ccc(OCc3ccccc3)cc2)nc2cc(O)ccc12"
category = "No"


Lab note: confirm whether the reported % Cell Death for this molecule is below 10, equality not counting. molecule: CC(=O)c1sc(NC(=O)Nc2ccc(C)cc2C)nc1C
Yes

Lab note: confirm whether the reported % Cell Death for this molecule is below 10, equality not counting. molecule: Cl.Cn1c(=O)n(C)c2cc(CNCCNc3ccnc4cc(Cl)ccc34)ccc21
No

Lab note: confirm whether the reported % Cell Death for this molecule is below 10, equality not counting. molecule: CCN(CC)CCNc1ccnc2cc(Cl)ccc12
No

Lab note: confirm whether the reported % Cell Death for this molecule is below 10, equality not counting. molecule: COc1ccc(Nc2nc(NCc3ccccc3)c3ccccc3n2)cc1
No

Lab note: confirm whether the reported % Cell Death for this molecule is below 10, equality not counting. molecule: O=C(NC1CCN(Cc2ccccc2)CC1)c1cc(C(=O)NC2CCN(Cc3ccccc3)CC2)cc(C(=O)NC2CCN(Cc3ccccc3)CC2)c1
No

Lab note: confirm whether the reported % Cell Death for this molecule is below 10, equality not counting. molecule: FC(F)(F)c1cccc(Nc2nc3ccccc3nc2Nc2cccc(C(F)(F)F)c2)c1
No

Lab note: confirm whether the reported % Cell Death for this molecule is below 10, equality not counting. molecule: CC1CC2=C(CC1CNCCCN(C)C)C(C)(C)CCC2 (configuration not stated)
Yes

Lab note: confirm whether the reported % Cell Death for this molecule is below 10, equality not counting. molecule: COc1ccc2nc(C)cc(Nc3ccccc3O)c2c1
No

Lab note: confirm whether the reported % Cell Death for this molecule is below 10, equality not counting. molecule: Oc1c(C(Nc2ccccn2)c2cccc(Oc3ccccc3)c2)ccc2cccnc12 (configuration not stated)
No

Lab note: confirm whether the reported % Cell Death for this molecule is below 10, equality not counting. molecule: CCOc1cccc(C(=O)Nc2ccc(-c3nc4ccccc4[nH]3)cc2)c1
Yes

Lab note: confirm whether the reported % Cell Death for this molecule is below 10, equality not counting. molecule: Oc1c2c(nc3cc(-c4ccccc4)nn13)CCCC2
No

Lab note: confirm whether the reported % Cell Death for this molecule is below 10, equality not counting. molecule: C=C(C)CCC(C)N1CCC(N2CCC(C(=O)NCCc3ccccc3)CC2)CC1 (configuration not stated)
No

Lab note: confirm whether the reported % Cell Death for this molecule is below 10, equality not counting. molecule: CCOC(=O)C1CCN(C(=O)CN2C(=O)c3ccccc3C2c2c[nH]c3ccccc23)CC1 (configuration not stated)
No

Lab note: confirm whether the reported % Cell Death for this molecule is below 10, equality not counting. molecule: O=C(NNc1cc(N2CCCC2)nc(N2CCCC2)n1)c1ccccc1
No
